target: Solute carrier organic anion transporter family member 1B1 (Homo sapiens); settings: chinese hamster, cho, 10 µM
Sequence (Q9Y6L6 whole entry): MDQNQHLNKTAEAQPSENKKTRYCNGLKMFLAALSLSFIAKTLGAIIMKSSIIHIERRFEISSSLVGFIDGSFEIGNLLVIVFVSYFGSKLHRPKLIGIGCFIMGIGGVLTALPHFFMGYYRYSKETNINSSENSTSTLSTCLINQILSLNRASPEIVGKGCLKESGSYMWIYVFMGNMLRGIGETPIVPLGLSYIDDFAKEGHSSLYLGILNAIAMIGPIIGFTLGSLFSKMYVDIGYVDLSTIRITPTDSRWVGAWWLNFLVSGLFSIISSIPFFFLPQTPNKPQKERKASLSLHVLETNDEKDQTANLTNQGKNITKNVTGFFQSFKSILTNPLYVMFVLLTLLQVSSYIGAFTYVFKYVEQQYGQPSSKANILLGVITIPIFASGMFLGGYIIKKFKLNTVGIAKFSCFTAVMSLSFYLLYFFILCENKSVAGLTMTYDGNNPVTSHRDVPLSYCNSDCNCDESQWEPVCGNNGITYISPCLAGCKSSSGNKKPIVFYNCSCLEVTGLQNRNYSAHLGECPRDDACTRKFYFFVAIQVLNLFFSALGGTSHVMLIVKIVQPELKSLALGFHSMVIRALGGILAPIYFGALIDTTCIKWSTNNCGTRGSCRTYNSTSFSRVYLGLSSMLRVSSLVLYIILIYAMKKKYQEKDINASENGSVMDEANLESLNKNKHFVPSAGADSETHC

{"compound": "CC(=O)O[C@@H]1C[C@H]2C(C)(C)C(=O)CC[C@]2(C)[C@H]2CC[C@@]3(C)[C@H](c4ccoc4)OC(=O)[C@H]4O[C@]43[C@@]21C [DIHYDROGEDUNIN]", "measuredTarget": "Solute carrier organic anion transporter family member 1B1 (Homo sapiens)", "unitsText": "%", "residual activity": 35.54}
{"compound": "CN1CCCC(n2nc(Cc3ccc(Cl)cc3)c3ccccc3c2=O)CC1.Cl (stereo unspecified) [AZELASTINE HYDROCHLORIDE]", "measuredTarget": "Solute carrier organic anion transporter family member 1B1 (Homo sapiens)", "unitsText": "%", "residual activity": 43.45}
{"compound": "O=C(O)c1cc(O)c2c(c1)[C@H]([C@H]1c3cc(C(=O)O)cc(O)c3C(=O)c3c(O[C@@H]4O[C@H](CO)[C@@H](O)[C@H](O)[C@H]4O)cccc31)c1cccc(O[C@@H]3O[C@H](CO)[C@@H](O)[C@H](O)[C@H]3O)c1C2=O [Sennoside A]", "measuredTarget": "Solute carrier organic anion transporter family member 1B1 (Homo sapiens)", "unitsText": "%", "residual activity": 122.9}
{"compound": "CC(C)=CCC1=C(O)C(=O)c2ccccc2C1=O [LAPACHOL]", "measuredTarget": "Solute carrier organic anion transporter family member 1B1 (Homo sapiens)", "unitsText": "%", "residual activity": 115.5}
{"compound": "Clc1ccc(CO/N=C(\\Cn2ccnc2)c2ccc(Cl)cc2Cl)c(Cl)c1.O=[N+]([O-])O [OXICONAZOLE NITRATE]", "measuredTarget": "Solute carrier organic anion transporter family member 1B1 (Homo sapiens)", "unitsText": "%", "residual activity": 116}
{"compound": "Cl.O=C(O)CCC1NCC2CC1CN1CCCCC21 (stereo unspecified) [LUPANYL ACID HYDROCHLORIDE]", "measuredTarget": "Solute carrier organic anion transporter family member 1B1 (Homo sapiens)", "unitsText": "%", "residual activity": 104.4}
{"compound": "CC(C)(C)NCC(O)COc1cccc2c1CC(O)C(O)C2 (stereo unspecified) [NADOLOL]", "measuredTarget": "Solute carrier organic anion transporter family member 1B1 (Homo sapiens)", "unitsText": "%", "residual activity": 76.36}
{"compound": "Cc1cc(O)c(C)c(O)c1C(=O)O [3-METHYLORSELLINIC ACID]", "measuredTarget": "Solute carrier organic anion transporter family member 1B1 (Homo sapiens)", "unitsText": "%", "residual activity": 116.2}
{"compound": "COc1c(C(=O)O)ccc2c1CCC(C)(C)O2 [DIHYDRO-beta-TUBAIC ACID]", "measuredTarget": "Solute carrier organic anion transporter family member 1B1 (Homo sapiens)", "unitsText": "%", "residual activity": 98.02}
{"compound": "COc1ccc2c(c1OC)C(=O)O[C@H]2[C@H]1c2cc3c(cc2CCN1C)OCO3 [1R,9S-HYDRASTINE]", "measuredTarget": "Solute carrier organic anion transporter family member 1B1 (Homo sapiens)", "unitsText": "%", "residual activity": 94.94}
{"compound": "O=C(O)CCCN1C(=O)c2cccc3cccc(c23)C1=O", "measuredTarget": "Solute carrier organic anion transporter family member 1B1 (Homo sapiens)", "unitsText": "%", "residual activity": 113.1}
{"compound": "C=C1c2c(Cl)ccc(O)c2C(=O)C2=C(O)[C@]3(O)C(=O)C(C(N)=O)=C(O)[C@@H](N(C)C)[C@@H]3[C@@H](O)[C@H]12.O=C(O)c1cc(S(=O)(=O)O)ccc1O [MECLOCYCLINE SULFOSALICYLATE]", "measuredTarget": "Solute carrier organic anion transporter family member 1B1 (Homo sapiens)", "unitsText": "%", "residual activity": 122.1}
{"compound": "CNCCC(Oc1ccc(C(F)(F)F)cc1)c1ccccc1 (stereo unspecified) [FLUOXETINE]", "measuredTarget": "Solute carrier organic anion transporter family member 1B1 (Homo sapiens)", "unitsText": "%", "residual activity": 55.32}
{"compound": "CC1CCc2cc(F)cc3c(=O)c(C(=O)O)cn1c23 (stereo unspecified) [FLUMEQUINE]", "measuredTarget": "Solute carrier organic anion transporter family member 1B1 (Homo sapiens)", "unitsText": "%", "residual activity": 74.99}
{"compound": "C=C(C)C1Cc2c(ccc(C(=O)O)c2O)O1 (stereo unspecified) [TUBAIC ACID]", "measuredTarget": "Solute carrier organic anion transporter family member 1B1 (Homo sapiens)", "unitsText": "%", "residual activity": 158.2}
{"compound": "CC1=CC2C(CC1=O)C(C)=CCC2C(C)C (stereo unspecified) [MUUROLLADIE-3-ONE]", "measuredTarget": "Solute carrier organic anion transporter family member 1B1 (Homo sapiens)", "unitsText": "%", "residual activity": 267.7}
